List of GI50 values.
system: EKVX; assay: NCI tumour cell line growth inhibition, 48 h
Active and inactive are the calls of the source. No stated cut-off is given here; in the data, active = GI50 up to about 1.1 µM and inactive = higher. Peptide text beside a SMILES is read from it. * marks the point of attachment. Boc = CC(C)(C)OC(=O)*
Readout Name: GI50

[[record]]
molecule = "COC(=O)C(Cc1ccccc1)NC(=O)C(CS)NC(=O)OC(C)(C)C (stereo not drawn) (Boc-Cys-Phe-OMe; configuration not given here)"
target_of_assay = "EKVX"
readout_name = "GI50"
result = "> 100 µM (inactive)"

[[record]]
molecule = "CCOC(=O)C(=C=Cc1cccs1)C(=O)c1ccccc1"
target_of_assay = "EKVX"
readout_name = "GI50"
result = "16.7 µM (inactive)"

[[record]]
molecule = "CCOc1ccc(NC(=O)CC2C(=O)Nc3ccccc3[S+]2[O-])cc1 (stereo unspecified)"
target_of_assay = "EKVX"
readout_name = "GI50"
result = "> 46.5 µM (inactive)"

[[record]]
molecule = "NC1=NCC(c2ccccn2)C1c1ccc(F)cc1 (stereo unspecified)"
target_of_assay = "EKVX"
readout_name = "GI50"
result = "> 100 µM (inactive)"

[[record]]
molecule = "Cc1ccc(-n2nnc3c(NNc4ccccc4)n[nH]c(=O)c32)cc1"
target_of_assay = "EKVX"
readout_name = "GI50"
result = "80.7 µM (inactive)"

[[record]]
molecule = "C[n+]1cccc2ccc(OC(=O)c3ccccc3)cc21"
target_of_assay = "EKVX"
readout_name = "GI50"
result = "> 100 µM (inactive)"

[[record]]
molecule = "C=C(CC[C@@H](C)[C@H]1CC[C@H]2[C@@H]3C[C@@H](O)[C@H]4C[C@@H](O)CC[C@]4(CO)[C@H]3CC[C@]12C)C(C)C"
target_of_assay = "EKVX"
readout_name = "GI50"
result = "2.1 µM (inactive)"

[[record]]
molecule = "S=c1[nH]n2c(CCCCCCCCc3nnc4sc(=S)[nH]n34)nnc2s1"
target_of_assay = "EKVX"
readout_name = "GI50"
result = "> 100 µM (inactive)"

[[record]]
molecule = "Cc1nn2c(=O)c([N+](=O)[O-])c(/C=C/c3ccc(F)cc3)nc2s1"
target_of_assay = "EKVX"
readout_name = "GI50"
result = "5.64 µM (inactive)"

[[record]]
molecule = "CC(C)CC1N=C(OCc2ccccc2)OC1=O (stereo unspecified)"
target_of_assay = "EKVX"
readout_name = "GI50"
result = "> 100 µM (inactive)"

[[record]]
molecule = "CCC1=[N+](CC)CCN1CC"
target_of_assay = "EKVX"
readout_name = "GI50"
result = "> 100 µM (inactive)"


* * *

tested on: UACC-257; assay: NCI tumour cell line growth inhibition, 48 h
Calls of active or inactive are those of the source. Cut-off read from the data, not from the text of the source: active = GI50 up to about 1.1 µM and inactive = higher.
Readout Name: GI50

[[record]]
compound = "COc1ccc(C(O)CNC(=O)c2ccccc2)cc1 (stereo not given)"
target_of_assay = "UACC-257"
result = "> 100 µM (inactive)"

[[record]]
compound = "C1=N\\CCN2CCN(CC/N=C\\c3ccc(cc3)OCc3cccc(n3)COc3ccc/1cc3)CC2"
target_of_assay = "UACC-257"
result = "> 50 µM (inactive)"

[[record]]
compound = "O=C1CSC(/C(=C/c2ccccc2)c2nc3ccccc3[nH]2)=N1"
target_of_assay = "UACC-257"
result = "> 100 µM (inactive)"

[[record]]
compound = "CCCCCCCCCCCCCCCCCCOCC(CCP(=O)(CP(=O)(O)O)Oc1ccccc1)OCCCCCCCCCCCCCCCCCC (stereo not given)"
target_of_assay = "UACC-257"
result = "> 100 µM (inactive)"

[[record]]
compound = "CCOC(=O)c1ccc(/N=C/C=C(\\Nc2ccc(C(=O)OCC)cc2)C23CC4CC(CC(C4)C2)C3)cc1"
target_of_assay = "UACC-257"
result = "35.9 µM (inactive)"

[[record]]
compound = "Cc1ccc(S(=O)(=O)NNC2(NS(=O)(=O)c3ccc(Cl)cc3)C(Cl)=C(Cl)C(=O)c3ccccc32)cc1 (stereo not given)"
target_of_assay = "UACC-257"
result = "17.6 µM (inactive)"

[[record]]
compound = "CC(/C(=N/NC(=O)C(N)=O)c1c(Cl)ccc(Cl)c1O)C1(O)C(=O)Nc2ccccc21 (stereo not given)"
target_of_assay = "UACC-257"
result = "53.3 µM (inactive)"

[[record]]
compound = "COC(OC)[C@@H]1OC[C@H](n2ccc(=O)[nH]c2=O)[C@H]1O"
target_of_assay = "UACC-257"
result = "> 100 µM (inactive)"

[[record]]
compound = "COc1ccc(CCn2nccc2C)cc1"
target_of_assay = "UACC-257"
result = "> 100 µM (inactive)"

[[record]]
compound = "CN(C)c1ncc(-c2c[nH]c3ccccc23)nc1-c1c[nH]c2ccccc12"
target_of_assay = "UACC-257"
result = "1.9 µM (inactive)"


* * *

system: HOP-62; experiment: NCI tumour cell line growth inhibition, 48 h
Active and inactive are the calls of the source. No stated cut-off is given here; in the data, active = GI50 up to about 1.1 µM and inactive = higher.
Readout Name: GI50

[[record]]
compound = "CCCCC1(C)C=C/C(=C2/C(=O)O/C(=C\\C(=O)O)C2=O)O1 (stereo unspecified)"
readout_name = "GI50"
result = "> 100 µM (inactive)"

[[record]]
compound = "COc1c(OC2OC(CO)C(O)C(O)C2O)cc2c(c1OC)-c1ccc(OC)c(=O)cc1[C@@H](NC(C)=O)CC2 (stereo partly specified)"
readout_name = "GI50"
result = "> 100 µM (inactive)"

[[record]]
compound = "COc1cccc(CC2Cc3ccccc3CC(=O)N2)c1 (stereo unspecified)"
readout_name = "GI50"
result = "9.18 µM (inactive)"

[[record]]
compound = "O=S(=O)(OI(OI(OS(=O)(=O)C(F)(F)F)c1ccccc1)c1ccccc1)C(F)(F)F"
readout_name = "GI50"
result = "90.8 µM (inactive)"

[[record]]
compound = "COc1cc2ccn3c4cc(OC)c(OC)cc4cc3c2cc1OC"
readout_name = "GI50"
result = "> 100 µM (inactive)"

[[record]]
compound = "CC(Nc1ncc2c(n1)-c1ccccc1OC2)C(=O)O (stereo unspecified)"
readout_name = "GI50"
result = "51.6 µM (inactive)"


* * *

system: OVCAR-8; test: NCI tumour cell line growth inhibition, 48 h
Active and inactive are the calls of the source. No stated cut-off is given here; in the data, active = GI50 up to about 1.1 µM and inactive = higher. Where a SMILES comes first, the peptide text is derived from it. [ ]: non-standard residue; d: D form. Hiv = CC(C)[C@H](O)C(=O)O
Outcome codes: t = active, f = inactive

[[record]]
molecule = "O=C(NC12CC3CC(CC(F)(C3)C1)C2)c1ccccc1"
category = "f"

[[record]]
molecule = "COc1ccc(Nc2nc3c(N)cc(C(F)(F)F)cc3nc2-c2ccccc2)cc1"
category = "f"

[[record]]
molecule = "COc1cc(-c2ccc(Nc3ccccc3C(=O)O)c(OC)c2)ccc1Nc1ccccc1C(=O)O"
category = "f"

[[record]]
molecule = "Cn1c2ccccc2c(=O)c2c(O)cc3c(c21)CC(C1(C)CO1)O3 (stereo unspecified)"
category = "t"

[[record]]
molecule = "CN(C)C(=O)Oc1ccc[n+](C)c1 [PYRIDOSTIGMINE BROMIDE]"
category = "f"

[[record]]
molecule = "O=C1CC(c2ccccc2)NCCCCN2CC(CN1)C(C(O)c1ccccc1)C2=O (stereo unspecified)"
category = "f"

[[record]]
molecule = "C=CCC1(CC)C(=O)NC(=O)NC1=O [ETALLOBARBITAL]"
category = "f"

[[record]]
molecule = "CC(C)[C@@H]1OC(=O)[C@@H](C)NC(=O)[C@@H]2CCCN2C1=O (cyclo([Hiv]-Pro-[dA]))"
category = "f"

[[record]]
molecule = "COc1nc2c(c(O)c(C)c(=O)n2OC2OCC(OC(C)=O)C(OC(C)=O)C2OC(C)=O)c(=O)n1C (stereo unspecified)"
category = "f"

[[record]]
molecule = "C/C(=N\\NC(=O)c1ccncc1)c1cccc(F)c1"
category = "f"

[[record]]
molecule = "c1ccc2c(c1)CCN2CCN1CCc2ccccc21"
category = "f"

[[record]]
molecule = "O=c1cc(CN2CCCCC2)nc2ccc3c(O)cc(CN4CCCCC4)nc3n12"
category = "f"

[[record]]
molecule = "Cc1cc2nc(C#N)c(N3CCN(c4ccc([N+](=O)[O-])cc4)CC3)nc2cc1C"
category = "f"

[[record]]
molecule = "COc1ccc(C(O)CNC(=O)c2ccccc2)cc1 (stereo unspecified)"
category = "f"

[[record]]
molecule = "Cc1ccc2c(=O)c(C(=O)N(CCO)CCO)c[nH]c2n1"
category = "f"

[[record]]
molecule = "O=S(=O)(OI(OI(OS(=O)(=O)C(F)(F)F)c1ccccc1)c1ccccc1)C(F)(F)F"
category = "f"

[[record]]
molecule = "Cc1nc(/C(=N\\n2cnnc2)Nc2ccc(Br)cc2)no1"
category = "f"

[[record]]
molecule = "CC(C)OC1=C(CC2(C)OCCO2)C(=O)C12OCCO2"
category = "f"

[[record]]
molecule = "CN(C)/N=N/c1ccc(S(N)(=O)=O)cc1"
category = "f"

[[record]]
molecule = "CCOC(=O)/C(C#N)=C\\C=C1/C=CN=C2NCCN21"
category = "f"

[[record]]
molecule = "O=S(=O)(c1ccc(I)cc1)N(c1ccccc1)S(=O)(=O)C(F)(F)C(F)(F)C(F)(F)C(F)(F)F"
category = "f"


// provenance: ChEMBL document CHEMBL1201862
